Examples of compounds with documented thermal shift delta Tm follow.
- Test system: LOC_OS01G63280-cb003
- testSummary: thermal shift delta Tm vs DMSO control; higher = stronger stabilization (binding);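 also: purified Escherichia coli-expressed rice kinase domain construct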
- measurementParameters: 12.5 µM; protein concentration 2 µM
Structures can show the parent of a compound that is named as a salt.
experimentalReadout: thermal shift delta Tm (°C)

O=C(Nc1cnn2ccc(N3CCC[C@@H]3c3cc(F)ccc3F)nc12)N1CC[C@H](O)C1 [Larotrectinib (LOXO-101) sulfate] :: -0.24
C[C@H](NC(=O)c1c(N)nn2cccnc12)c1cc2cccc(C#Cc3cnn(C)c3)c2c(=O)n1-c1ccccc1 :: 0
Cc1[nH]c(/C=C2\C(=O)Nc3ccc(S(=O)(=O)Cc4c(Cl)cccc4Cl)cc32)c(C)c1C(=O)N1CCC[C@@H]1CN1CCCC1 :: 0.78
C[C@@]1(C(=O)Nc2ccc(F)nc2)CCCN1c1nc(Nc2cc(C3CC3)n[nH]2)c2cccn2n1 :: 0.6

----------
- System: LOC_OS01G63280-cb003
- testSummary: thermal shift delta Tm vs DMSO control; higher = stronger stabilization (binding)
- measurementParameters: 12.5 µM; protein concentration 2 µM
Where a name gives a salt, the structure may show the parent alone.
Each entry below lists one item and its recorded thermal shift delta Tm value.
experimentalReadout: thermal shift delta Tm

CNC(=O)c1ccccc1Nc1nc(Nc2ccc(N3CCOCC3)cc2OC)ncc1Cl :: 0.09 °C
O=c1cc(N2CCOCC2)oc2c(-c3ccc4c(c3)OCCO4)csc12 :: 0.2 °C
C=CC(=O)Nc1cccc(Nc2nc(Nc3ccc(NC4CN(CCF)C4)cc3OC)ncc2C(F)(F)F)c1 :: 0.2 °C
CCCNC(=O)Nc1ccc(Oc2ncnc3cc(OC)c(OC)cc23)cc1Cl :: 0.14 °C
C[C@H]1CNC(=O)c2cnn3ccc(nc23)N[C@H](C)c2cc(F)ccc2O1 :: 2 °C
COc1cc2c3cc1Oc1c(OC)c(OC)cc4c1[C@@H](Cc1ccc(O)c(c1)Oc1ccc(cc1)C[C@@H]3N(C)CC2)N(C)CC4 [Berbamine (dihydrochloride)] :: -0.06 °C
O=C(/C=C/c1ccc2ccccc2n1)c1ccncc1 :: 1.12 °C
C=CC(=O)N1CCC[C@@H](n2nc(-c3ccc(Oc4ccccc4)cc3)c3c(N)ncnc32)C1 :: 3.76 °C
Cn1nccc1Nc1nccc(-c2ccn([C@H](CO)c3ccc(Cl)c(F)c3)c(=O)c2)n1 :: 0 °C

----------
- System: LOC_OS02G54510-cb004
- testSummary: thermal shift delta Tm vs DMSO control; higher = stronger stabilization (binding)
- measurementParameters: 12.5 µM; protein concentration 2 µM
experimentalReadout: thermal shift delta Tm (°C)

C[C@H](Nc1ncnc2nc[nH]c12)c1cc2cccc(Cl)c2c(=O)n1-c1ccccc1 :: 2.02
CC1=C(C(=O)Nc2cc3cn[nH]c3cc2F)C(c2ccc(C(F)(F)F)cc2)CC(=O)N1 (centres undefined) :: 0.13
O=C(O[C@@H]1Cc2c(O)cc(O)cc2O[C@@H]1c1cc(O)c(O)c(O)c1)c1cc(O)c(O)c(O)c1 [(-)-Epigallocatechin Gallate] :: -0.12
CN1CCN(Cc2ccc(-c3cnc4[nH]cc(-c5ccc6[nH]ccc6c5)c4c3)cc2)CC1 :: 1.09
COc1cc2ncnc(Nc3ccc(F)c(Cl)c3)c2cc1NC(=O)/C=C/CN1CCCCC1 :: 0.71
CNC(=O)c1cc(Oc2ccc(NC(=O)Nc3ccc(Cl)c(C(F)(F)F)c3)cc2)ccn1 [Sorafenib] :: 1.47
COc1cccc(-c2cc(=O)c3ccccc3o2)c1N :: 0.15
CC(C)n1ncnc1-c1cn2c(n1)-c1ccc(O[C@@H](C)C(N)=O)cc1OCC2 :: 0.04
O=C(c1cccc(Cl)c1F)N1CCN(Cc2cccc(Nc3nccs3)n2)CC1 :: 0.15

----------
- System: LOC_OS03G27990-cb004
- testSummary: thermal shift delta Tm vs DMSO control; higher = stronger stabilization (binding)
- measurementParameters: 12.5 µM; protein concentration 2 µM
experimentalReadout: thermal shift delta Tm (°C)

CNS(=O)(=O)Nc1nccc(Cc2c(C)c3ccc(Oc4ncccn4)cc3oc2=O)c1F :: 0.15
O=C(NCc1cccc(O)c1)Nc1nc(-c2ccncc2)cs1 :: 1.06
Cc1nc(Nc2n[nH]c3c2CN(C(=O)N[C@H](CN(C)C)c2ccccc2)C3(C)C)c2sccc2n1 :: 0.55
CC#CC(=O)Nc1ccc2ncnc(Nc3cccc(Br)c3)c2c1 :: 0.39
Cc1nc(Nc2cnn(C3CCNCC3)c2)nc2c1N(C)C(=O)c1cc3ccccc3cc1N2C :: 0.13
CO[C@H]1C[C@@H]2CC[C@@H](C)[C@@](O)(O2)C(=O)C(=O)N2CCCC[C@H]2C(=O)O[C@H]([C@H](C)C[C@@H]2CC[C@@H](O)[C@H](OC)C2)CC(=O)[C@H](C)/C=C(\C)[C@@H](O)[C@@H](OC)C(=O)[C@H](C)C[C@H](C)/C=C/C=C/C=C/1C [Rapamycin (Sirolimus)] :: 0.16
CNC(=O)c1cc(Oc2ccc(NC(=O)Nc3cc(C(C)(C)C)nn3-c3ccc4ncccc4c3)c(F)c2)ccn1 :: 0.52
CN1CCN(c2ccc3nc(-c4c(N)c5c(F)cccc5[nH]c4=O)[nH]c3c2)CC1 [Dovitinib (TKI258) Lactate] :: 8.6

----------
- Tested on: LOC_OS05G07850-cb002
- testSummary: thermal shift delta Tm vs DMSO control; higher = stronger stabilization (binding)
- measurementParameters: 12.5 µM; protein concentration 2 µM
Listed next: entries and their corresponding thermal shift delta Tm.
experimentalReadout: thermal shift delta Tm

Cn1c(Nc2ccc(C(F)(F)F)cc2)nc2cc(Oc3ccnc(-c4ncc(C(F)(F)F)[nH]4)c3)ccc21 :: 0.57 °C
CCCCCCCCCCCCc1ccc(S(=O)(=O)Nc2nncs2)cc1 :: 0.11 °C
O=C(O)c1cc(O)c2c(c1)[C@@H]([C@H]1c3cc(C(=O)O)cc(O)c3C(=O)c3c(O[C@@H]4O[C@H](CO)[C@@H](O)[C@H](O)[C@H]4O)cccc31)c1cccc(O[C@@H]3O[C@H](CO)[C@@H](O)[C@H](O)[C@H]3O)c1C2=O [Sennoside B] :: -1.7 °C
CSc1cccc(Nc2ncc3cc(-c4c(Cl)cccc4Cl)c(=O)n(C)c3n2)c1 :: 5.12 °C
CCc1cncnc1N1CCN(Cc2nc3ccc(C(F)(F)F)cc3[nH]2)CC1 :: -0.11 °C
Cn1sc(=O)n(Cc2ccccc2)c1=O :: -2.47 °C
CCn1c(N)c(C(=O)NC)c(=O)c2ccc(C#CC(C)(O)COC)nc21 (configuration not stated) :: 5.21 °C
Cc1nc(-c2cn3c(n2)-c2ccc(-c4cnn(C(C)(C)C(N)=O)c4)cc2OCC3)n(C(C)C)n1 :: 0.89 °C
CN1CCN(CCOc2cc(OC3CCOCC3)c3c(Nc4c(Cl)ccc5c4OCO5)ncnc3c2)CC1 :: 7.68 °C
CC(C)(C)NC(=O)c1cncn1C1CCN(c2ccc(-c3nnc(C(F)(F)F)o3)cn2)CC1 :: 0.05 °C
COc1ccc2c(Oc3ccc(NC(=O)c4c(C)n(CC(C)(C)O)n(-c5ccccc5)c4=O)nc3)ccnc2c1 :: 9.73 °C
COCC(=O)NC/C=C/c1ccc2ncnc(Nc3ccc(Oc4ccc(C)nc4)c(C)c3)c2c1 :: 3.11 °C
O=C(NCCCNc1nc(Nc2cccc(NC(=O)N3CCCC3)c2)ncc1I)c1cccs1 :: 12.1 °C
Cc1ccccc1-n1c(Cn2nc(-c3cccc(O)c3)c3c(N)ncnc32)nc2cccc(C)c2c1=O :: 0.71 °C
CNC(=O)c1ccc(-c2cnc3ncc(Cc4ccc5ncccc5c4)n3n2)cc1F :: 0.67 °C
COc1cc(Nc2ncc3c(n2)-c2ccc(Cl)cc2C(c2c(F)cccc2OC)=NC3)ccc1C(=O)O :: 10.3 °C
c1cncc(CN2CCC(n3ncc4c(N5CCOCC5)nc(-c5ccc6[nH]ccc6c5)nc43)CC2)c1 :: 0.6 °C

----------
- Tested on: LOC_OS05G16824-cb004
- testSummary: thermal shift delta Tm vs DMSO control; higher = stronger stabilization (binding)
- measurementParameters: 12.5 µM; protein concentration 2 µM
The molecules listed here are annotated with their thermal shift delta Tm.
experimentalReadout: thermal shift delta Tm

COc1cccc2cc(-c3nc([C@H]4CC[C@H](C(=O)O)CC4)n4ncnc(N)c34)[nH]c12 :: -4.58 °C
CCCCCCCCCCCCc1ccc(S(=O)(=O)Nc2nncs2)cc1 :: -2.07 °C
Cn1cnc2c(F)c(Nc3ccc(Br)cc3F)c(C(=O)NOCCO)cc21 :: -1.71 °C
CCOc1cc2ncc(C#N)c(Nc3ccc(F)c(Cl)c3)c2cc1NC(=O)/C=C/CN(C)C [Pelitinib (EKB-569)] :: -1.87 °C
CS(=O)(=O)CCNCc1ccc(-c2ccc3ncnc(Nc4ccc(OCc5cccc(F)c5)c(Cl)c4)c3c2)o1 :: -0.68 °C
CC(C)c1cnn2c(NCc3ccccc3-n3cccn3)nc(OC3CCCNC3)nc12 (configuration not stated) :: 1.46 °C
CN1CCN(c2ccc(Nc3cc(-c4cccc(-n5ccc6cc(C7CC7)cc(F)c6c5=O)c4CO)cn(C)c3=O)nc2)CC1 :: 0.67 °C
Cc1cc(NC(=O)c2cccc(NC(=O)/C=C/CN(C)C)c2)ccc1Nc1nccc(-c2cccnc2)n1 :: 1.96 °C
CCN(CC)CCCC(C)Nc1nc(C)cc(Nc2ccc3nc(C)cc(N)c3c2)n1 (configuration not stated) :: -1.91 °C
CCc1nc(-c2cccc(C)c2)c(-c2ccnc(NC(=O)c3ccccc3)c2)s1 :: -0.96 °C
Cc1nc(N)sc1-c1ccnc(Nc2ccc(N3CCOCC3)cc2)n1 :: 8.12 °C
Cn1cnc(N)c2ncnc1-2 :: -3.2 °C
O=c1cc(N2CCOCC2)oc2c1ccc1ccccc12 :: 1.86 °C
CC(C)n1nc(-c2ccc3oc(N)nc3c2)c2c(N)ncnc21 :: -0.35 °C
CCNC(=O)Nc1ccc(-c2nc(N3CCOC[C@@H]3C)c3c(n2)C(C)(C)S(=O)(=O)C3)cc1 :: 0.19 °C
CCS(=O)(=O)Nc1ccc2c(c1)/C(=C(/Nc1ccc(CN3CCCCC3)cc1)c1ccccc1)C(=O)N2 :: 16.8 °C
C[C@H](Nc1ncnc2[nH]cnc12)c1cc2ccc(F)cc2nc1-c1ccccn1 :: 0.99 °C
O=C(/C=C/c1ccc2ccccc2n1)c1ccncc1 :: 4.2 °C
Nc1nccc(Oc2ccc(NC(=O)c3c[nH]cc(-c4ccc(F)cc4)c3=O)cc2F)c1Cl :: -0.78 °C
O=C(NC[C@H](O)CO)c1ccncc1Nc1ccc(I)cc1F :: -2.59 °C
O=C(NCCO)c1cccc(-c2cc(Nc3ccc(OC(F)(F)F)cc3)ncn2)c1 :: 0.97 °C
CCN1CCN(Cc2ccc(-c3cc4c(N[C@H](C)c5ccccc5)ncnc4[nH]3)cc2)CC1 :: 3.87 °C
O=C(c1cccc(Cl)c1F)N1CCN(Cc2cccc(Nc3nccs3)n2)CC1 :: 3.48 °C
CC(C)c1c2cc(-c3ccnc(NC4CCC(NC5CCOCC5)CC4)n3)ccc2nn1C (configuration not stated) :: -6.14 °C
CCOc1cn(-c2ccc(F)cc2C)nc1C(=O)Nc1ccc(Oc2ccnc3cc(OC)c(OC)cc23)c(F)c1 :: -0.65 °C
O=C(O)c1ccc(Nc2ncc3c(n2)-c2ccc(Cl)cc2C(c2c(F)cccc2F)=NC3)cc1 :: -1.88 °C
CNc1nc(-c2ccc3c(N)n[nH]c3c2)cc(N2C[C@@H](C(=O)NC3CCCCC3)CC[C@H]2C)n1 :: -1.52 °C
COc1cc2c(c(OC)c1OC)-c1c(cc3c(c1OC)OCO3)CC(C)C(C)C2 (configuration not stated) [Schisandrin B (Sch B)] :: -1 °C
COc1ccc2c(c1)[C@]1(C[C@H]1c1ccc3c(/C=C/c4ccc(CN5C[C@@H](C)O[C@@H](C)C5)cc4)n[nH]c3c1)C(=O)N2 :: 9.09 °C
CCOc1cc(C(=O)N2CCC(N3CCN(C)CC3)CC2)ccc1Nc1ncc2c(n1)N(C1CCCC1)c1ccccc1C(=O)N2C :: 0.71 °C
Nc1cccc(-c2cc3c(Oc4cccc(O)c4)ncnc3[nH]2)c1 :: 5.59 °C
Cc1ccc(C(=O)Nc2ccc(CN3CCN(C)CC3)c(C(F)(F)F)c2)cc1C#Cc1cnc2[nH]ncc2c1 [GZD824 Dimesylate] :: 2.52 °C
CC(C)(C)Cn1c(N)nc2ccc(-c3[nH]c(C(C)(C)C)nc3-c3ccc(F)cc3)nc21 :: -0.61 °C
CN(C)C/C=C/C(=O)Nc1cc2c(Nc3ccc(F)c(Cl)c3)ncnc2cc1O[C@H]1CCOC1 [Afatinib (BIBW2992) Dimaleate] :: -0.29 °C
Cc1c(Cn2c(C)nc3c(C(=O)O)cc(N4CCOCC4)cc32)cccc1C(F)(F)F :: -2.15 °C
NC(=O)c1cnc(N[C@@H]2CCCC[C@@H]2N)nc1Nc1cccc(-n2nccn2)c1 :: 6.77 °C
C#Cc1cccc(Nc2ncnc3cc(OCCOC)c(OCCOC)cc23)c1 :: -4.3 °C
